# System: Toxoplasma gondii RH 2F1 tachyzoites (intracellular in HFF)
# Experiment notes: parasite survival relative to DMSO control; higher = less antiparasitic activity, active = 20 or less
# Test settings: 1 µM; 72 h
Parameter measured: parasite survival (%)
Give the quantity in %, number only.

Enquiry: Consider the compound shown here: CCCCc1ccc(-c2cc(C(=O)O)cc(-c3ccc(Cl)cc3)n2)cc1 What is its recorded parasite survival?
Return: 40.8

Enquiry: What do we get for Cc1ccc(Oc2ccccc2-c2csc(N=C3NCCCN3)n2)c(C)c1 ?
Return: 30.1

Enquiry: What do we get for COc1ccc2c(c1)cc(CNC(=O)c1cc3ccccc3o1)n2CC(=O)O ?
Return: 64.2

Enquiry: What do we get for Oc1ccc2[nH]c(-c3ccccc3)nc2c1 ?
Return: 66.2

Enquiry: What do we get for O=[N+]([O-])/C(Br)=C/c1ccc(Br)o1 ?
Return: 26.6

Enquiry: What do we get for CCC[C@@H]1C[C@@H](C(=O)N[C@@H]([C@H]2O[C@H](SC)[C@H](O)[C@@H](O)[C@H]2O)[C@H](C)Cl)N(C)C1 ?
Return: 16.1

Enquiry: What do we get for Cc1[nH]c2ccccc2c1CCNCc1ccc(/C=C/C(=O)NO)cc1 ?
Return: 4.12

Enquiry: What do we get for CCc1cc(O)c(Oc2cccnc2N)cc1F ?
Return: 44.6

Enquiry: What do we get for CCCCSc1nc(N)c2[nH]c(=O)c(=O)n(Cc3ccccc3)c2n1 ?
Return: 26.1

Enquiry: What do we get for CCCCCCCc1[nH]c2ccccc2c(=O)c1O ?
Return: 49

Enquiry: What do we get for CCOc1ccc(/C=N/NC(=O)C2CC2c2ccc(C(C)(C)C)cc2)cc1OCC (stereo not drawn) ?
Return: 51.6

Enquiry: What do we get for CC(C)c1ccc(COc2cccc(-c3cc([S+](C)[O-])c(C#N)c(=O)[nH]3)c2)cc1 (stereo not drawn) ?
Return: 13.2

Enquiry: What do we get for NC(=O)c1cnccn1 ?
Return: 52.5

Enquiry: What do we get for O=c1cc(NCCCN[C@@H]2CCOc3c(Br)cc(Br)cc32)[nH]c2ccsc12 ?
Return: 30.7
